- Tested on: HCT-116
- run_description: Cytotoxicity against human HCT116 cells harboring wild type p53 assessed as reduction in cell viability after 72 hrs by CellTiter 96 AQueous one solution cell proliferation assay
- Assay type: cell-based
- measurement_context: HCT-116, 72 h
List of IC50 values.

Give a short answer stating reported IC50 for `C=CC(C)(C)[C@]12Nc3c(O)cccc3[C@@]1(O)C[C@H]1C(=O)O[C@@H](Cc3ccccc3)C(=O)N12` .
> 50 µM

Look up IC50 of `C=CC(C)(C)c1[nH]c2ccccc2c1C[C@H](NC(=O)[C@@H](O)Cc1ccccc1)C(=O)O` and report it.
> 50 µM

Tell me measured IC50 for `C=CC(C)(C)[C@]1(C[C@H](NC(=O)[C@@H](O)Cc2ccccc2)C(=O)O)C(=O)Nc2c(O)cccc21` please.
> 50 µM

----------
- Tested on: HCT-116
- run_description: Cytotoxicity against p53 null human HCT116 cells assessed as reduction in cell viability after 72 hrs by CellTiter 96 AQueous one solution cell proliferation assay
- Format: cell-based
- measurement_context: HCT-116, 72 h
pIC50: −log10 of the molar value.
// pIC50 lookup, one value per entry

smiles_input: C=CC(C)(C)c1[nH]c2ccccc2c1C[C@H](NC(=O)[C@@H](O)Cc1ccccc1)C(=O)O
pIC50: < 4.30
--
smiles_input: C=CC(C)(C)[C@]1(C[C@H](NC(=O)[C@@H](O)Cc2ccccc2)C(=O)O)C(=O)Nc2c(O)cccc21
pIC50: < 4.30

// next item, pIC50 requested
Write down pIC50 measured for item `C=CC(C)(C)[C@]12Nc3c(O)cccc3[C@@]1(O)C[C@H]1C(=O)O[C@@H](Cc3ccccc3)C(=O)N12`
< 4.30
